biological target: T1, Human C5 (human, UniProt P01031 19-1676); assay: SPR, mAb captured by anti-hFc, 37C
T1 construct: The natural protein has a beta and an alpha chain; also called complement factor 5; complement component 5

{"Binder": "H4H12166P8 (antibody, human IgG4, V domains shown, human IgG4 Fc with S108P hinge mutation) VH: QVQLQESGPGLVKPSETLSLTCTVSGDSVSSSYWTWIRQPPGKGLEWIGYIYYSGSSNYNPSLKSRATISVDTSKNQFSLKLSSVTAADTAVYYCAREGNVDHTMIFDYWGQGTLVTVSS VL: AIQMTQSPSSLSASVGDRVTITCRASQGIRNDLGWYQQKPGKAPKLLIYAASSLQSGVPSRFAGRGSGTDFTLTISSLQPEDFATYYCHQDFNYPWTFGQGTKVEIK", "100 nM Human C5 Bound (RU)": 98}
{"Binder": "H4H12166P9 (antibody, human IgG4, V domains shown, human IgG4 Fc with S108P hinge mutation) VH: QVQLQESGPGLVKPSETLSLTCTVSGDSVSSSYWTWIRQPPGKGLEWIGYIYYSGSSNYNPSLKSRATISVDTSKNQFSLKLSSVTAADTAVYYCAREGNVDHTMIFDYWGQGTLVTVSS VL: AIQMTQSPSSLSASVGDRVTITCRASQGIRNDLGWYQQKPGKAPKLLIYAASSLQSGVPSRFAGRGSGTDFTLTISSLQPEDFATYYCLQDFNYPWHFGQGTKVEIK", "100 nM Human C5 Bound (RU)": 122}
